Attribution: patent US10081631B2

Test system: primary human fibroblasts derived from IPF patients (LL29 cells)
ASSAY PROTOCOL: Inhibition of fibrosis: TGF-β1-treated primary human fibroblasts from IPF patients (LL29), αSMA staining
Type: cell-based
MEASUREMENT PARAMETERS: Fibroblast, 96 h, TGF-β1 20 ng/mL, 4 days, % αSMA-positive cells
RECORDED ENDPOINT: EC50

| SMILES STRUCTURE | SYSTEM | RECORDED ENDPOINT | RESULT |
| --- | --- | --- | --- |
| Fc1cccc(-c2nccc3[nH]c(-c4n[nH]c5ccc(-c6cncc(OC7CCNCC7)c6)cc45)nc23)c1 | primary human fibroblasts derived from IPF patients (LL29 cells) | EC50 | 0.038 µM |
| Fc1cccc(-c2nccc3[nH]c(-c4n[nH]c5ccc(-c6cncc(CN7CCC(F)(F)C7)c6)cc45)nc23)c1 | primary human fibroblasts derived from IPF patients (LL29 cells) | EC50 | 0.056 µM |
| c1cc2[nH]c(-c3n[nH]c4ccc(-c5cncc(CNCC6CCCC6)c5)cc34)nc2c(-c2ccoc2)n1 | primary human fibroblasts derived from IPF patients (LL29 cells) | EC50 | 0.009 µM |
| c1ccc(-c2nccc3[nH]c(-c4n[nH]c5ccc(-c6cncc(CNCC7CCCC7)c6)cc45)nc23)nc1 | primary human fibroblasts derived from IPF patients (LL29 cells) | EC50 | 0.061 µM |

====

System: Wnt activity (Sp5-Luc reporter, SW480 colon carcinoma cells)
ASSAY PROTOCOL: Screening assay for Wnt activity: Sp5-Luc reporter gene assay in SW480 cells
Assay type: cell-based
MEASUREMENT PARAMETERS: Homo sapiens, 42 h incubation, luminescence
So basically every entry gets a class from its IC50, ranges being group A = under 20 nM, group B = from 20 nM up to 100 nM, group C = 100 nM and over

| MOLECULE | ASSIGNED LABEL |
| --- | --- |
| Cc1ccncc1-c1ccc2[nH]nc(-c3nc4c(-c5ccsc5)nccc4[nH]3)c2c1 [Compound 239] | group A |
| O=C(Nc1cncc(-c2ccc3[nH]nc(-c4nc5c(-c6ccsc6)nccc5[nH]4)c3c2)c1)C1CCCC1 [Compound 255] | group B |
| Fc1cccc(-c2nccc3[nH]c(-c4n[nH]c5ccc(-c6cncc(OC7CCNCC7)c6)cc45)nc23)c1 [Compound 1776] | group C |
| CN(C)c1cncc(-c2ccc3[nH]nc(-c4nc5c(-c6ccccc6F)nccc5[nH]4)c3c2)c1 [Compound 59] | group A |
| O=C(Nc1cncc(-c2ccc3[nH]nc(-c4nc5c(-c6ccncc6)nccc5[nH]4)c3c2)c1)C1CCCCC1 [Compound 126] | group C |
| Cn1cc(-c2ccc3[nH]nc(-c4nc5c(N6CCOCC6)nccc5[nH]4)c3c2)cn1 [Compound 2280] | group A |
| O=C(Nc1cncc(-c2ccc3[nH]nc(-c4nc5c(-c6ccccn6)nccc5[nH]4)c3c2)c1)C1CCC1 [Compound 150] | group B |
| CN(C)c1cncc(-c2ccc3[nH]nc(-c4nc5c(N6CCCCC6)nccc5[nH]4)c3c2)c1 [Compound 163] | group A |
| O=C(Nc1cncc(-c2ccc3[nH]nc(-c4nc5c(-c6ccccc6F)nccc5[nH]4)c3c2)c1)C1CCCC1 [Compound 73] | group A |
| CC(=O)c1ccc(-c2nccc3[nH]c(-c4n[nH]c5ccc(-c6cccnc6)cc45)nc23)s1 [Compound 368] | group A |
| CN(C)Cc1cncc(-c2ccc3[nH]nc(-c4nc5c(-c6ccsc6)nccc5[nH]4)c3c2F)c1 [Compound 1573] | group C |
| FC1(F)CCN(c2nccc3[nH]c(-c4n[nH]c5ccc(-c6cccnc6)cc45)nc23)CC1 [Compound 2273] | group B |
| Cc1ccc(-c2nccc3[nH]c(-c4n[nH]c5ccc(-c6cncc(CN7CCCCC7)c6)cc45)nc23)s1 [Compound 353] | group C |
| CCNCc1cncc(-c2ccc3[nH]nc(-c4nc5c(-c6cc(F)cc(NCCN(C)C)c6)nccc5[nH]4)c3c2)c1 [Compound 422] | group C |
